Molecular target: Cytochrome P450 2C19 (Homo sapiens) (UniProt P33261)
Sequence (P33261 whole entry, looked up): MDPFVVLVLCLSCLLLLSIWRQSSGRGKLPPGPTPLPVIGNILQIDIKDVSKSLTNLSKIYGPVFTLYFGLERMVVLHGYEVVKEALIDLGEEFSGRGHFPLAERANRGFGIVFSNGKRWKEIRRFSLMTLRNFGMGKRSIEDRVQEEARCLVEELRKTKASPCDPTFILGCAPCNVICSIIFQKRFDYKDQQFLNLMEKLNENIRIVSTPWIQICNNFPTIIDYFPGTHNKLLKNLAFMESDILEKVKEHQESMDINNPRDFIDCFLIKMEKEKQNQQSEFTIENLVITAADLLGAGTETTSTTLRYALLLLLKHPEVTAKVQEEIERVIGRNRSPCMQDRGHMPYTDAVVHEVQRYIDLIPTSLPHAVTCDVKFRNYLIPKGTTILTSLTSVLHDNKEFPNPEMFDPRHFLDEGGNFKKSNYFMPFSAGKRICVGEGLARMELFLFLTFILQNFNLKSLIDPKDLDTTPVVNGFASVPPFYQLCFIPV
Test: Cytochrome P450 Family 2 Subfamily C Member 19 (CYP2C19) small molecule antagonists: luciferase reporter qHTS assay (AID 1671197); also: nearly all actives have a fitted effect of over 65% in size
Conditions: P450-Glo CYP2C19 enzyme, luciferin luminescence, 1 h; series mostly up to 115 µM
Inconclusive results are not listed. Calls of active or inactive are those of the source. Calls follow the shape of the dose curve; as a rule, active = well fitted inhibition curve with a large enough effect in the repeat runs; inconclusive = weak or mixed curves; inactive = no such curve, though single readings can be large or run the other way.
# valid calls are active, inactive; nothing else

Use the examples below as a reference point.
molecule=Fc1ccc(Oc2ccnc3cc(Cl)cc(Cl)c23)cc1 category=active
molecule=ClC1=C(Cl)[C@]2(Cl)[C@@H]3[C@@H](Cl)[C@@H](Cl)C[C@@H]3[C@@]1(Cl)C2(Cl)Cl category=inactive
molecule=CCCCOCN(C(=O)CCl)c1c(CC)cccc1CC category=active
molecule=CC(C)OC(=S)S category=inactive
molecule=COc1cc(C=O)cc2c1[C@H](COC(N)=O)[C@]1(OC(C)=O)ON2C[C@H]2[C@@H]1N2C(C)=O category=inactive
molecule=CCOCCOC(C)=O category=active

Task: Recorded test outcome, item OC(Cc1ccccc1Cl)(Cn1cncn1)C1(Cl)CC1 (centres undefined)
Output: active

Task: Recorded test outcome, item CN(C)CCc1c[nH]c2ccc(O)cc12
Output: inactive

Task: Recorded test outcome, item CCOP(=O)(NC(C)C)Oc1ccc(SC)c(C)c1 (centres undefined)
Output: active

* * *

Assay: qHTS RealTime-Glo MT Cell Viability Assay in HepG2 cells - 8 hour (AID 1224873); also: nearly all actives have a fitted effect of over 55% in size
Settings: RealTime-Glo luminescence; series mostly up to 76.8 µM
Results filed as inconclusive are left out. The source made the active and inactive calls. Calls follow the shape of the dose curve; as a rule, active = well fitted cell-killing curve with a large enough effect in the repeat runs; inconclusive = weak or mixed curves; inactive = flat fitted curve, though single readings scatter.
# valid calls are label 1 = active, label 0 = inactive; nothing else

Use the examples below as a reference point.
compound=C=CCOC(N)=O category="label 0"
compound=COC[C@H](C)N(C(=O)CCl)c1c(C)csc1C category="label 0"
compound=ClCc1ccc(Cl)cc1Cl category="label 0"
compound="CC(C)CC(C)Nc1ccc(Nc2ccccc2)cc1 (configuration not stated)" category="label 1"
compound=Cc1cc(SCc2sc(-c3ccc(C(F)(F)F)c(F)c3)nc2C)ccc1OCC(=O)O category="label 0"
compound=CSCCCN=C=S category="label 0"

Please find the next compound below.
Task: Recorded test outcome, item CCC[CH2][Sn]([CH2]CCC)([CH2]CCC)[O]C(=O)c1ccccc1
Output: label 1

* * *

Experiment: qHTS assay to identify small molecule antagonists of the sonic hedgehog signaling (Shh) pathway - cell viability counter screen (AID 1259367); also: nearly all actives have a fitted effect of over 55% in size
Details: NIH/3T3 Gli1-Luc viability, CellTiter-Fluor, 24 h; series mostly up to 92.4 µM
Inconclusive results are not listed. Activity calls are given as the source filed them. Calls come from the whole dose curve; as a rule, active = well fitted cell-killing curve with a large enough effect in the repeat runs; inconclusive = weak or mixed curves, or effect the other way; inactive = no such curve, though single readings can be large or run the other way.
# valid calls are active, inactive; nothing else

mol=O=CC(Br)(Br)Br category=active
mol=COCC(=O)N(c1c(C)cccc1C)[C@H](C)C(=O)OC category=inactive
mol=CC(C)OS(C)(=O)=O category=inactive
mol=CCCCCCCCc1ccc(O)cc1 category=inactive
mol=Cn1cc(C2=C(c3cn(C4CCN(Cc5ccccn5)CC4)c4ccccc34)C(=O)NC2=O)c2ccccc21 category=inactive
mol=CSCCCN=C=S category=inactive
mol=Cc1cc(C(C)(C)c2cc(C)c(O)c(C)c2)cc(C)c1O category=inactive
mol=CCC(C)(C)C(=O)OC1=C(c2ccc(Cl)cc2Cl)C(=O)OC12CCCCC2 category=inactive

Task: Recorded test outcome, item N#CCCO
Output: inactive

Task: Recorded test outcome, item ClCc1ccccc1CCl
Output: inactive

Task: Recorded test outcome, item CCc1ccccc1C
Output: inactive

Just for reference, PubChem BioAssay (Tox21) is where these values come from.
